assay: Selectivity index, ratio of IC50 for HUVEC cells to MIC for Candida albicans SC5314; format: toxicity; conditions: human, HUVEC cells versus Candida albicans SC5314; read-out: Selectivity Index
Give selectivity ratio for every item shown.

| Smi | Experimental Endpoint | Value Measured |
| --- | --- | --- |
| OC(Cn1cncn1)(Cn1cncn1)c1ccc(F)cc1F | selectivity ratio | 100 |
| C[C@@H](OCC#Cc1ccc(C#N)cc1)[C@](O)(Cn1cncn1)c1ccc(F)cc1F | selectivity ratio | > 500 |
| C[C@@H](OCC#Cc1ccncc1)[C@](O)(Cn1cncn1)c1ccc(F)cc1F | selectivity ratio | > 500 |

Consider now this further compound.
q: For the compound C[C@@H](OCC#Cc1ccc(F)cc1F)[C@](O)(Cn1cncn1)c1ccc(F)cc1F , give its reported selectivity ratio.
a: > 500
